Test system: NCI-H522 lung
Assay: NCI tumour cell line growth inhibition, 48 h
Is TGI at least 30 µM? Then Fulfilled. If not, Not fulfilled.

Would you please look over these solved cases?
{"compound": "O=P(c1ccccc1)(c1ccccc1)C(NCc1ccccc1)c1ccc(F)cc1 (stereo not given)", "classification": "Not fulfilled"}
{"compound": "Cc1cc(NS(=O)(=O)c2ccc(NC(=O)c3cccc4c(=O)c5ccccc5[nH]c34)cc2)no1", "classification": "Fulfilled"}
{"compound": "C=C(C)[C@@H](C(=O)OC)N1C(=O)c2ccccc2C1=O", "classification": "Fulfilled"}
{"compound": "CN(C)CC(CN(C)C)c1ccccn1", "classification": "Fulfilled"}
{"compound": "O=C(O)c1cc(N=Nc2ccc([As](=O)(O)O)cc2)ccc1O", "classification": "Fulfilled"}
{"compound": "C[C@]12CC[C@@H]3c4ccc(Oc5nc(N6CC6)nc(N6CC6)n5)cc4CC[C@H]3[C@@H]1CCC2=O", "classification": "Not fulfilled"}
{"compound": "Oc1cc(O)c2c(c1)O[C@H](c1cc(O)c(O)c(O)c1)[C@H](O)C2", "classification": "Fulfilled"}
{"compound": "CN1C(NC(=O)c2ccc(Cl)nc2)=NS(=O)(=O)c2cc(Cl)ccc21", "classification": "Fulfilled"}

Then this compound:
INPUT: Item Cc1cccc2c(N)c3cccc(C(=O)NCCCNCCN)c3nc12 with TGI of 30 µM or above?
OUTPUT: Not fulfilled

meta.source: PubChem BioAssay (NCI)
